Each recorded value in this set is attributed to ChEMBL document CHEMBL1147472.

Here the recorded EC50 is given for each entry.
target-desc: Peroxisome proliferator-activated receptor delta (Homo sapiens, UniProt Q03181)
Sequence (Q03181 whole entry): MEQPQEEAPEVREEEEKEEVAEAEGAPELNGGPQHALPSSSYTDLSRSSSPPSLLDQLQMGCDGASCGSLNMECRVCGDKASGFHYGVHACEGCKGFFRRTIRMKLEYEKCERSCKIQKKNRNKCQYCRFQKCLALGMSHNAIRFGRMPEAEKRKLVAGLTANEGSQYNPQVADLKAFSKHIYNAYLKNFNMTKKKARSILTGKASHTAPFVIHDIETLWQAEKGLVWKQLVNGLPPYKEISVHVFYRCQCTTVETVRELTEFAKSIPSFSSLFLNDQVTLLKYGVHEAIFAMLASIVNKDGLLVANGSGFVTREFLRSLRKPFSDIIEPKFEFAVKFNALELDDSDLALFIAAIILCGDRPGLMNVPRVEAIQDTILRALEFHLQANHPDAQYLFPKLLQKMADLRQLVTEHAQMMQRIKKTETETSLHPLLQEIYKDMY
assay-overview: In vitro transcription activation on human peroxisome proliferator activated receptor-delta (PPAR delta)
property-measured: EC50 (µM)

molecule: COC(=O)C(Cc1ccc(OCCOc2ccc3c(c2)CCCC3)cc1)C(=O)OC
val: 3.31
//
molecule: NC(=O)C(Cc1ccc(OCCOc2ccc3c(c2)NCCC3)cc1)C(=O)O (stereo not given)
val: 3.62
//
molecule: CCCCCCCCCCCCCCC(Br)C(=O)O (stereo not given)
val: 3.72
//
molecule: COC(=O)C(Cc1ccc(OCCOc2ccc3ccccc3c2)cc1)C(=O)OC
val: 1.27
//
molecule: COC(=O)C(Cc1ccc(OCCOc2ccc3c(c2)NCCC3)cc1)C(=O)OC
val: 3.16
//
molecule: O=C(O)C(Cc1ccc(OCCOc2ccc3c(c2)CCCC3)cc1)C(=O)O
val: 4.68
//
molecule: COC(=O)C(Cc1ccc(OCCOc2ccc3c(c2)CCCC3)cc1)C(=O)O (stereo not given)
val: 2.45
//
molecule: NC(=O)C(Cc1ccc(OCCOc2ccc3ccccc3c2)cc1)C(=O)O (stereo not given)
val: 2.63
//
molecule: COC(=O)C(Cc1ccc(OCCOc2ccc3ccccc3c2)cc1)C(=O)O (stereo not given)
val: 1.05
//
molecule: COC(=O)C(Cc1ccc(OCCOc2ccc3c(c2)NCCC3)cc1)C(=O)O (stereo not given)
val: 3.09

----------
Here the recorded Max response is given for each entry.
target-desc: Peroxisome proliferator-activated receptor alpha (Homo sapiens) (UniProt Q07869)
Sequence (whole entry): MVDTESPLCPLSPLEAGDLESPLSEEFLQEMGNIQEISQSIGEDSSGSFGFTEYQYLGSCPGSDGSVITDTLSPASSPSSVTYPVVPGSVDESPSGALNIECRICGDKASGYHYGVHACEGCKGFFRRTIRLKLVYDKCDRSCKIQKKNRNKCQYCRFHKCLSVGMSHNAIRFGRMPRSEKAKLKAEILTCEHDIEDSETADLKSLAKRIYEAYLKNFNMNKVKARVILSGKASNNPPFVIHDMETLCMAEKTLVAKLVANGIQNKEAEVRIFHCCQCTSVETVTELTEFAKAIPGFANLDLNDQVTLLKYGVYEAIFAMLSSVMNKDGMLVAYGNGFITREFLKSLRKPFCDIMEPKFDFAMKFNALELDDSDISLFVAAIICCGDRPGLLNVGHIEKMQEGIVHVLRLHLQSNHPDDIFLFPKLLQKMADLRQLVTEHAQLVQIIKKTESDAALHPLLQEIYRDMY
assay-overview: In vitro transcription activation on human peroxisome proliferator activated receptor-alpha (PPAR alpha)

compound: NC(=O)C(Cc1ccc(OCCOc2ccc3ccccc3c2)cc1)C(=O)O (stereo not drawn)
target-desc: Peroxisome proliferator-activated receptor alpha (Homo sapiens) (UniProt Q07869)
Max response (%): 213
--
compound: Cc1cccc(Nc2cc(Cl)nc(SCC(=O)O)n2)c1C
target-desc: Peroxisome proliferator-activated receptor alpha (Homo sapiens) (UniProt Q07869)
Max response (%): 100
--
compound: COC(=O)C(Cc1ccc(OCCOc2ccc3ccccc3c2)cc1)C(=O)OC
target-desc: Peroxisome proliferator-activated receptor alpha (Homo sapiens) (UniProt Q07869)
Max response (%): 264
--
compound: COC(=O)C(Cc1ccc(OCCOc2ccc3c(c2)NCCC3)cc1)C(=O)OC
target-desc: Peroxisome proliferator-activated receptor alpha (Homo sapiens) (UniProt Q07869)
Max response (%): 215
--
compound: COC(=O)C(Cc1ccc(OCCOc2ccc3c(c2)CCCC3)cc1)C(=O)OC
target-desc: Peroxisome proliferator-activated receptor alpha (Homo sapiens) (UniProt Q07869)
Max response (%): 210
--
compound: COC(=O)C(Cc1ccc(OCCOc2ccc3ccccc3c2)cc1)C(=O)O (stereo not drawn)
target-desc: Peroxisome proliferator-activated receptor alpha (Homo sapiens) (UniProt Q07869)
Max response (%): 264
--
compound: NC(=O)C(Cc1ccc(OCCOc2ccc3c(c2)NCCC3)cc1)C(=O)O (stereo not drawn)
target-desc: Peroxisome proliferator-activated receptor alpha (Homo sapiens) (UniProt Q07869)
Max response (%): 210
--
compound: COC(=O)C(Cc1ccc(OCCOc2ccc3c(c2)NCCC3)cc1)C(=O)O (stereo not drawn)
target-desc: Peroxisome proliferator-activated receptor alpha (Homo sapiens) (UniProt Q07869)
Max response (%): 207

----------
Here the recorded pEC50 is given for each entry.
target-desc: Peroxisome proliferator-activated receptor gamma (Homo sapiens, UniProt P37231)
Sequence (P37231 whole entry): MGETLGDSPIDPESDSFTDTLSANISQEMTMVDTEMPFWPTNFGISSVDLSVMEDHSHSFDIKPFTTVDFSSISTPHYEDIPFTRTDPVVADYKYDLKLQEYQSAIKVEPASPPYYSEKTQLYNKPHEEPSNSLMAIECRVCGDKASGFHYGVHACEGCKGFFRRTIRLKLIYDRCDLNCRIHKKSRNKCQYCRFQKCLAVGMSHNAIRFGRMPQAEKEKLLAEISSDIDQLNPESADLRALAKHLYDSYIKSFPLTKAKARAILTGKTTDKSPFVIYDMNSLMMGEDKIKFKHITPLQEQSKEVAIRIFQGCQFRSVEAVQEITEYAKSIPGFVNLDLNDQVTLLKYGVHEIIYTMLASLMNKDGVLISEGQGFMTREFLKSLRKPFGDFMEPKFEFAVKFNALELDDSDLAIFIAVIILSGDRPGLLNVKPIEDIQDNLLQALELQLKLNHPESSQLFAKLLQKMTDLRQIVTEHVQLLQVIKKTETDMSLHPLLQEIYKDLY
assay-overview: In vitro transcription activation on human peroxisome proliferator activated receptor-gamma (PPAR gamma)
pEC50: −log10 of the molar value.
property-measured: pEC50

compound: COC(=O)C(Cc1ccc(OCCOc2ccc3ccccc3c2)cc1)C(=O)O (stereo not given)
property-measured: pEC50
val: 5.95
--
compound: COC(=O)C(Cc1ccc(OCCOc2ccc3c(c2)C(C)(C)CCC3(C)C)cc1)C(=O)OC
property-measured: pEC50
val: 6.82
--
compound: COC(=O)C(Cc1ccc(OCCOc2ccc3c(c2)C(C)(C)CCC3(C)C)cc1)C(N)=O (stereo not given)
property-measured: pEC50
val: 6.08
--
compound: O=C(O)C(Cc1ccc(OCCOc2ccc3c(c2)CCCC3)cc1)C(=O)O
property-measured: pEC50
val: 5.68
--
compound: NC(=O)C(Cc1ccc(OCCOc2ccc3ccccc3c2)cc1)C(=O)O (stereo not given)
property-measured: pEC50
val: 5.52
--
compound: NC(=O)C(Cc1ccc(OCCOc2ccc3c(c2)NCCC3)cc1)C(=O)O (stereo not given)
property-measured: pEC50
val: 5.54
--
compound: COC(=O)C(Cc1ccc(OCCOc2ccc3c(c2)CCCC3)cc1)C(=O)OC
property-measured: pEC50
val: 5.82
--
compound: COC(=O)C(Cc1ccc(OCCOc2ccc3c(c2)C(C)(C)CCC3(C)C)cc1)C(=O)O (stereo not given)
property-measured: pEC50
val: 7.05
--
compound: COC(=O)C(Cc1ccc(OCCOc2ccc3ccccc3c2)cc1)C(=O)OC
property-measured: pEC50
val: 6.28
--
compound: COC(=O)C(Cc1ccc(OCCOc2ccc3c(c2)CCCC3)cc1)C(=O)O (stereo not given)
property-measured: pEC50
val: 6.16

----------
Quick record of EC50 values for Peroxisome proliferator-activated receptor gamma (Homo sapiens, UniProt P37231).
property-measured: EC50

molecule: Cc1cccc(Nc2cc(Cl)nc(SCC(=O)O)n2)c1C [PIRINIXIC ACID]
val: Not Active
//
molecule: O=C(O)C(Cc1ccc(OCCOc2ccc3ccccc3c2)cc1)C(=O)O
val: Not Active
//
molecule: O=C(O)C(Cc1ccc(OCCOc2ccc3c(c2)NCCC3)cc1)C(=O)O
val: Not Active
//
molecule: CC1(C)CCC(C)(C)c2cc(OCCOc3ccc(CC(C(N)=O)C(=O)O)cc3)ccc21 (centres undefined)
val: Not Active

----------
target-desc: Peroxisome proliferator-activated receptor alpha (Homo sapiens, UniProt Q07869)
assay-overview: In vitro transcription activation on human peroxisome proliferator activated receptor-alpha (PPAR alpha)
// boundary case: EC50 equal to 90 nM maps to NO; strictly smaller maps to YES

compound: COC(=O)C(Cc1ccc(OCCOc2ccc3ccccc3c2)cc1)C(=O)O (configuration not stated)
answer-label: YES

compound: NC(=O)C(Cc1ccc(OCCOc2ccc3c(c2)NCCC3)cc1)C(=O)O (configuration not stated)
answer-label: NO

compound: COC(=O)C(Cc1ccc(OCCOc2ccc3c(c2)CCCC3)cc1)C(=O)OC
answer-label: YES

compound: COC(=O)C(Cc1ccc(OCCOc2ccc3ccccc3c2)cc1)C(=O)OC
answer-label: YES

compound: COC(=O)C(Cc1ccc(OCCOc2ccc3c(c2)NCCC3)cc1)C(=O)OC
answer-label: NO

compound: NC(=O)C(Cc1ccc(OCCOc2ccc3ccccc3c2)cc1)C(=O)O (configuration not stated)
answer-label: NO

----------
target-desc: Peroxisome proliferator-activated receptor gamma (Homo sapiens, UniProt P37231)
assay-overview: In vitro transcription activation on human peroxisome proliferator activated receptor-gamma (PPAR gamma)

molecule: COC(=O)C(Cc1ccc(OCCOc2ccc3c(c2)NCCC3)cc1)C(=O)O (centres undefined)
EC50 [µM]: 3.8
//
molecule: COC(=O)C(Cc1ccc(OCCOc2ccc3c(c2)CCCC3)cc1)C(N)=O (centres undefined)
EC50 [µM]: 3.43
//
molecule: COC(=O)C(Cc1ccc(OCCOc2ccc3c(c2)NCCC3)cc1)C(=O)OC
EC50 [µM]: 3.16
//
molecule: CC1(C)CCC(C)(C)c2cc(OCCOc3ccc(CC(C(=O)O)C(=O)O)cc3)ccc21
EC50 [µM]: 2.05
